# Study Target: T1, Cynomolgus CD3εδ Fc heterodimer (Cy CD3ε Fc / CD3δ Fc-HIS) (cynomolgus, UniProt Q95LI8 22-100)
# T1 chain 1: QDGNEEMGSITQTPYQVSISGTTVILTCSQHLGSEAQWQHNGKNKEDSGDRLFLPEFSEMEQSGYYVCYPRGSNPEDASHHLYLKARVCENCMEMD
# T1 chain 2: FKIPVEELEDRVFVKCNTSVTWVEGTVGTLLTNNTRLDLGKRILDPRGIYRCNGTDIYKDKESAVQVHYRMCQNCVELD
# Experiment Notes: BLI (Octet), IgG on AHC sensor, pH 7.4
Task for the reader: assign each of the following binders its reported Kd.
Write the number in nM without appending the unit.

Data request: Fill blank: measured Kd of the binder SAD10319_P02_F04 (ADI-57312) (antibody, V domains shown, IgG; also called Ab253) VH: QVQLVQSGAEVKKPGASVKVSCKASGYTFDSYTMHWVRQAPGQRLEWMGYINPDTGATYYSQKFQGRVTITRDTSASTAYMELSSLRSEDTAVYYCARDAYHHYFYDVWGQGTLVTVSS VL: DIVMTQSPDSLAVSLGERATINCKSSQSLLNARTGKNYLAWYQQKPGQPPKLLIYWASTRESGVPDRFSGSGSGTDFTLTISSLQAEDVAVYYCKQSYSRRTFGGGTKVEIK is ____.
Data returned: 117

Data request: Fill blank: measured Kd of the binder SAD10319_P02_F06 (ADI-57324) (antibody, V domains shown, IgG; also called Ab13) VH: QVQLVQSGAEVKKPGASVKVSCKASGYTFLSYAMHWVRQAPGQRLERMGWINPSTGATDYSQKFQGRVTITRDTSASTAYMELSSLRSEDTAVYYCARDAYGHYFYDVWGQGTLVTVSS VL: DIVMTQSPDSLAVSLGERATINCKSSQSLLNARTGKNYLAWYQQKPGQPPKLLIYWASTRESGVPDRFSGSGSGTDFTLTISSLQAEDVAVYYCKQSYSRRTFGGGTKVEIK is ____.
Data returned: 134

Data request: Fill blank: measured Kd of the binder SAD10319_P04_G10 (ADI-57334) (antibody, V domains shown, IgG; also called Ab32) VH: QVQLVQSGAEVKKPGASVKVSCKASGYTFTDYYMHWVRQAPGQRLEWMGWINPATGATAYSQKFQGRVTITRDTSASTAYMELSSLRSEDTAVYYCARDAYGHHFYDVWGQGTLVTVSS VL: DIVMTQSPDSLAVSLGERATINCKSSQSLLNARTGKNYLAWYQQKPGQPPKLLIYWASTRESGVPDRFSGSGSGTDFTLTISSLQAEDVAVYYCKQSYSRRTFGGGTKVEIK is ____.
Data returned: 62.6
